Taken from patent US20170319688A1.

Reported kon values for a set of binders
Biological target: T1, cynomolgus RSPO3 (cynomolgus, UniProt A0A2K5UTQ7 22-273)
T1 construct: also called cyno RSPO3
T1 sequence: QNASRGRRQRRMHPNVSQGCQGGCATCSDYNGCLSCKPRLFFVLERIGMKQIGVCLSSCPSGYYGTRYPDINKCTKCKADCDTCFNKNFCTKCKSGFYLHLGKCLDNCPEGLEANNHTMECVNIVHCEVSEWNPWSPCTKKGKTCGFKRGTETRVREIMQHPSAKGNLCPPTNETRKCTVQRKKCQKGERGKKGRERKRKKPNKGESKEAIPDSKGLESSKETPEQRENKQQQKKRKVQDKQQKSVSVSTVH
Test: SPR (BIAcore T200), RSPO3 immobilized, antibody injected, 25 C, 1:1 Langmuir
Write down the numeric answer in M⁻¹ s⁻¹ and omit the unit.

# annotated cases, reported kon shown
Binder	kon, M⁻¹ s⁻¹
hu15F3.L4H2 (antibody, V domains shown, CDR graft only (L4, H2); also called humanized 15F3) VH: EVQLVESGGGVVQPGRSLRLSCAASGFTFSDYDMAWVRQAPGKGLEWVATIIYDGSRAYFGDSVRGRFTISRDNSKNTLYLQMNSLRAEDTAVYYCTAHDRSFDYWGQGTMVTVSS VL: DIQMTQSPSSLSASVGDRVTITCLVSEDISNDFVWYQQKPGKAPKLLIYAASRLQDGVPSRFSGSGSGTDFTLTISSLQPEDFATYYCQQSYKYPPTFGQGTKLEIK	248000
chimeric 11C10 (antibody, V domains shown, Chimeric counterpart with the rat 11C10 variable domains) VH: EVQLVESGGGLVQPGRSLKLSCAASGFTFSDYDMAWVRQAPKKGLEWVATIIYDGSRTYYRDSVKGRFTISRANAKSTLYLQMDSLRSEDTATYYCATHDKTFDYWGQGVMVTVSS VL: DIQMTQSPASLSASLGETVTIECRASEDIYSDLAWYQQKPGNSPQLLIYDVNSLIHGVPSRFSGSGSGTQFSLKINNLQSEDVASYFCQQYDNYPNTFGAGTKLELK	633000

Kindly consider the entry below.
// query GET /values?readout=kon&item= hu11C10.L5H1 (antibody, V domains shown, CDR graft light chain L5 with H1; also called humanized 11C10) VH: EVQLVESGGGVVQPGRSLRLSCAASGFTFSDYDMAWVRQAPGKGLEWVATIIYDGSRTYYRDSVKGRFTISRDNSKNTLYLQMNSLRAEDTAVYYCATHDKTFDYWGQGTMVTVSS VL: DIQLTQSPSSLSASVGDRVTITCRASEDIYSDLAWYQQKPGKAPKLLIYDVNSLIHGVPSRFSGSGSGTDFTLTISSLQPEDFATYYCQQYDNYPNTFGQGTKLEIK
// result 695000
